System: SF-539 CNS
Experiment: NCI tumour cell line growth inhibition, 48 h
Measure name: TGI

The examples below pair each entry with its known result.
Query :: Endpoint output: TGI of O=c1cc2ccccc2nn1Cc1ccccc1Cl . Value?
Result :: > 100 µM

Query :: Please do the same for O=C1CC(=O)c2c(O)cc(O)c(c2O)-c2c(ccc(O)c2O)C2=CC(=O)c3c(O)cc(O)c(c3O2)-c2c1ccc(O)c2O (tested in a mixture with another compound) as well.
Result :: > 50 µM

Query :: Please answer likewise for Cn1ccn2c3nc4ccccc4nc3c(=O)c(C#N)c12
Result :: > 100 µM

Query :: How about COC1OC(CO)C(O)C(O)C1Br (stereo not given) ?
Result :: > 100 µM

Now for the molecule whose TGI we want.
Query :: TGI for O=c1[nH]nc(-c2ccccc2)n1/N=C/c1c[nH]c2ccccc12 ?
Result :: > 100 µM

----------
Test system: M14 melanoma
Experiment: NCI tumour cell line growth inhibition, 48 h
Measure name: TGI

Reference set, count: 2
Query :: Provide the documented TGI with M14 melanoma as the system for C/C(=N/NC(=S)Nc1ccccc1Cl)c1cccc(/C(C)=N\NC(=S)Nc2ccccc2Cl)n1
Result :: > 100 µM

Query :: Next record, please: O=C(CN1CCN(Cc2ccccc2)CC1)N1CCCn2c1nc1ccccc1c2=O
Result :: > 100 µM

We next turn to a different compound, shown below.
Query :: Param readout = TGI; param system = M14 melanoma; param query = CC(=O)O[C@H]1CC[C@@]2(C)C(=CC[C@H]3C4=CC=C(C(C)=O)[C@@]4(C)CCC32)C1 (stereo partly drawn) ; response: value
Result :: > 100 µM

----------
System: NCI-H23 lung
Assay: NCI tumour cell line growth inhibition, 48 h
Decision: TGI compared against 30 µM; not below it gives yes, below it gives no.

Record excerpt, results attached:
Query :: Exam item: decide whether the reported TGI for COc1ccc2c(Nc3ccc(NS(C)(=O)=O)cc3)c3ccccc3nc2c1 is at least 30 µM.
Result :: no

Query :: Same again, this time with COc1cccc(C(=O)N2CCc3ccccc32)c1OC
Result :: yes

Query :: // next record NC(=Nc1ccc(O)cc1)S(=O)(=O)O
Result :: yes

Query :: Now give it for Cn1c(=O)nc2n(-c3cccc(F)c3)c3ccccc3nc-2c1=O too.
Result :: yes

***
Query :: Determine whether measured TGI meets or exceeds 30 µM for N=C(N=C(N)N)N1CCN(c2ccncc2)CC1
Result :: yes

Query :: Now try O=[N+]([O-])c1ccc(N/N=C/c2c(O)ccc3ccccc23)nc1 .
Result :: yes

Query :: One more compound: ClC(Cl)(Cl)C1=N[C@H]2[C@H](Br)[C@@H]3O[C@@H](c4ccccc4)[C@H](c4ccccc4)O[C@@H]3[C@H]2O1
Result :: yes

Query :: Entry C=C1C[C@@H](O)C[C@@]2(C)C[C@@H]3OC(=O)C(=C)[C@@H]3C[C@H]12 please
Result :: yes

Query :: What about this compound? COc1ccc(-c2cc(/C=C3\C(=O)Nc4ccc(Cl)cc43)[nH]n2)cc1
Result :: no

Query :: // repeat for COC(=O)C(CCc1ccccc1I)C1=CCC2(CC1)OCCO2 (stereo not given) and report
Result :: yes

Query :: And then CN1NC2(CCCCC2)ON=C1c1ccccc1 , what is it?
Result :: yes

Query :: NC1CCN(c2nc(Nc3cccc(C(F)(F)F)c3)c3c(=O)[nH]ccc3n2)CC1 ?
Result :: no

Query :: Would you kindly repeat that for CN1CCCN(C)C1c1cc([N+](=O)[O-])ccc1O ?
Result :: yes

Query :: What do we get for CN(C)c1nc(NC23CC4CC(CC(C4)C2)C3)nc(N(C)C)n1 ?
Result :: yes

Query :: What about this compound? Cc1c(C(=O)c2ccccc2C(=O)O)c2ccccc2n1C
Result :: yes

Query :: Now try Nc1ccc(S(=O)(=O)C23CC4CC(CC(C4)C2)C3)cc1 .
Result :: yes

Query :: For COc1ccccc1-c1cc(=O)c2ccccc2[nH]1 then?
Result :: yes

----------
We begin with a simple list: items and their reported TGI.
Test system: UO-31 renal
Experiment: NCI tumour cell line growth inhibition, 48 h

Query :: Fill blank: measured TGI of the compound O=C(c1ccc2ncc(-c3nc(NC4CC4)ncc3F)n2c1)N1CCOCC1 is ____.
Result :: 13.6 µM

Continuing:
Query :: Give the measured TGI of Cc1cc(CNC(=O)OCc2ccccc2)c(C)c2c1Oc1ccccc1O2 .
Result :: > 100 µM

Query :: And for CC(C(=O)ON1C(=O)CCC1=O)c1ccc(C(=O)c2ccccc2)s1 (centres undefined) ?
Result :: > 100 µM

Query :: // query: CCNC(=O)C#CC(=O)NCC
Result :: > 100 µM

----------
Test system: SK-OV-3 ovarian
Return exactly one item of label 1 for active, label 0 for inactive

Query :: Look up the recorded call for Cc1nc2sc(C(=O)Nc3cccc4ccccc34)c(N)c2cc1C(=O)c1ccccc1 in this test.
Result :: label 0

Query :: Subsequent entry: Cc1sc(C)c(Cc2c(C)sc(C)c2CCl)c1CCl
Result :: label 0

Query :: // same read-out, input: COCCOC(=O)NC(=O)Nc1ccc(/C(=N/O)c2ccc(Cl)cc2)cc1
Result :: label 1

Query :: Another compound: O=S(=O)(NCC1CCC(CNc2ccc(Cl)cc2)CC1)c1ccc(-c2ccccc2)cc1 (configuration not stated)
Result :: label 0

Next:
Query :: What is the recorded call for this compound in the test? CC/C=C\C[C@H](O)C/C=C1/C(=O)C=C[C@@H]1C/C=C\CCCC(=O)N(C)C
Result :: label 0

Query :: Another compound to look at: CC[C@@]1(O)C(=O)NCc2c1cc1n(c2=O)Cc2cc3c(N)cccc3nc2-1
Result :: label 0

Query :: Input Clc1ccc2[nH]cc(-c3nc(-c4c[nH]c5ncccc45)cs3)c2c1
Result :: label 0

Query :: Then what about the compound N=C(N=C(N)N)N1CCN(c2ccncc2)CC1 ?
Result :: label 0

Query :: Further, for ClC(Cl)c1nc(-c2cccnc2)n2nc(-c3ccccc3)cc2n1 ?
Result :: label 0

Query :: Moving on to C=C1C(=O)O[C@H]2[C@H]1CC/C(COC(=O)NCc1ccc(Cn3c(=O)sn(CCCCl)c3=O)cc1)=C\CC[C@@]1(C)O[C@@H]21
Result :: label 0

Query :: Same read-out for Cc1cc(C)c(C[N+](C)(C)C)c(C)c1C ?
Result :: label 0

Query :: Same read-out for CCCCCCCCCCN(CCCCCCCCCC)CC(=O)c1ccc2cc(Br)c3ccccc3c2c1 ?
Result :: label 0

----------
Tested on: RPMI-8226 leukemia
Assay: NCI tumour cell line growth inhibition, 48 h
Measure name: TGI

Here is how some molecules turned out for TGI.
Query :: Quick one: TGI for COc1ccccc1-c1cc(=O)c2ccccc2[nH]1 ?
Result :: > 100 µM

Query :: And what about the molecule Cn1c(C(C#N)c2nc(Cl)ncc2Br)nc2ccccc21 (stereo not given) ?
Result :: > 100 µM

Query :: Quick one: Cc1cc(CNC(=O)OCc2ccccc2)c(C)c2c1Oc1ccccc1O2
Result :: > 100 µM

Query :: What do we get for CCOc1ccc(/C=C(\Cl)c2ccc(OC)c(OC)c2)cc1 ?
Result :: > 100 µM

***
Query :: Looking for the measured TGI of Cc1c2c(cc3c1[nH]c1ccccc13)C=NCC2 , can you help?
Result :: 51.6 µM

Query :: Moving on to COc1ccc2[nH]c(Cl)c(/C=C3/C(=O)Nc4cc(C)c(OC)cc43)c2c1
Result :: > 100 µM

Query :: Now give it for Cn1ncc2c(N)nc(N3CCCCC3)nc21 too.
Result :: > 100 µM

Query :: Same for Nc1nnc2cc(Cl)ccc2n1
Result :: > 100 µM

Query :: And for Cc1cc(-c2[nH]c(C(=O)O)cc2I)on1 ?
Result :: > 100 µM

Query :: Queued: Cc1c(C(=O)c2ccccc2C(=O)O)c2ccccc2n1C
Result :: > 100 µM

----------
Recorded TGI values for a group of compounds are listed next.
Tested on: EKVX NSCLC
Assay: NCI tumour cell line growth inhibition, 48 h

Query :: What value of measured TGI is listed for C/C(=N\NS(=O)(=O)c1ccccc1)c1ccccc1 ?
Result :: > 100 µM

Query :: Field entry: O=C1C(F)=CC(COC(c2ccccc2)(c2ccccc2)c2ccccc2)OC1n1cc(F)c(=O)[nH]c1=O (stereo not given)
Result :: > 24.4 µM

Query :: // next record CC(C)c1ccc(C(=O)Nc2sc3c(c2C#N)CCC(=O)C3)cc1
Result :: > 88.8 µM

Query :: And COC(=O)C(CCc1ccccc1I)C1=CCC2(CC1)OCCO2 (stereo not given) ?
Result :: > 100 µM

More entries:
Query :: Which TGI reading was recorded for the compound O=C(CC/C=C(/CS(=O)(=O)c1ccccc1)S(=O)(=O)c1ccccc1)c1ccccc1 ?
Result :: > 100 µM
